Provenance of the data: ChEMBL document CHEMBL3774313

Test system: A549
Experiment: Antiproliferative activity against human A549 cells assessed as cell viability after 72 hrs by MTT assay
Type: functional, cell-based
Conditions: A549, 72 h
The entries below come with measured IC50 values attached.

Study these solved cases before continuing.
CC1(C)CC[C@]2(C(=O)O)CC[C@]3(C)C(=CC[C@@H]4[C@@]5(C)CC[C@H](O[C@@H]6O[C@H](CO[C@@H]7OC[C@H](O)[C@H](O)[C@H]7O)[C@@H](O)[C@H](O)[C@H]6NC(=O)/C=C/c6cccc(F)c6)C(C)(C)[C@@H]5CC[C@]43C)[C@@H]2C1 = 32.8 µM
Cc1ccc(/C=C/C(=O)N[C@H]2[C@H](O[C@H]3CC[C@]4(C)[C@H]5CC=C6[C@@H]7CC(C)(C)CC[C@]7(C(=O)O)CC[C@@]6(C)[C@]5(C)CC[C@H]4C3(C)C)O[C@H](CO[C@@H]3OC[C@H](O)[C@H](O)[C@H]3O)[C@@H](O)[C@@H]2O)cc1 = > 50 µM

Req: Please give the documented IC50 of `O=c1[nH]cc(F)c(=O)[nH]1`
Resp: > 50 µM

Req: Please give the documented IC50 of `CC1(C)CC[C@]2(C(=O)O)CC[C@]3(C)C(=CC[C@@H]4[C@@]5(C)CC[C@H](O[C@@H]6O[C@H](CO[C@@H]7OC[C@H](O)[C@H](O)[C@H]7O)[C@@H](O)[C@H](O)[C@H]6NC(=O)/C=C/c6ccc(Br)cc6)C(C)(C)[C@@H]5CC[C@]43C)[C@@H]2C1`
Resp: > 50 µM

Req: Please give the documented IC50 of `CC1(C)CC[C@]2(C(=O)O)CC[C@]3(C)C(=CC[C@@H]4[C@@]5(C)CC[C@H](O[C@@H]6O[C@H](CO[C@@H]7OC[C@H](O)[C@H](O)[C@H]7O)[C@@H](O)[C@H](O)[C@H]6NC(=O)/C=C/c6ccc(Cl)cc6)C(C)(C)[C@@H]5CC[C@]43C)[C@@H]2C1`
Resp: > 50 µM

Req: Please give the documented IC50 of `CC(=O)N[C@H]1[C@H](O[C@H]2CC[C@]3(C)[C@H]4CC=C5[C@@H]6CC(C)(C)CC[C@]6(C(=O)O)CC[C@@]5(C)[C@]4(C)CC[C@H]3C2(C)C)O[C@H](CO[C@@H]2OC[C@H](O)[C@H](O)[C@H]2O)[C@@H](O)[C@@H]1O`
Resp: 5.27 µM
